- procedure.summary: Half life in Sprague-Dawley rat at 1 mg/kg, iv measured upto 24 hrs by LC/MS-MS analysis
- Type: ADME, organism-based
- conditions: in vivo
assay.readout: half-life

// query Record request: half-life value, item CC(=O)N1CCc2c(c(N3CCCc4cc(-c5cnn(C)c5)c(C(F)F)cc43)nn2[C@H]2CC[C@H](CN3Cc4cc5c(cc4C3)C(=O)N(C3CCC(=O)NC3=O)C5=O)CC2)C1 (stereo partly specified)
// result 1.9 h

###

- procedure.summary: Drug distribution in Sprague-Dawley rat liver at 10 mg/kg, po measured at 6 hrs by LC-MS/MS analysis
- Type: ADME, organism-based
- conditions: read-out: Ct
assay.readout: concentration at 6 h

// query concentration at 6 h value for entry CC(=O)N1CCc2c(c(N3CCCc4cc(-c5cnn(C)c5)c(C(F)F)cc43)nn2[C@H]2CC[C@H](CN3Cc4cc5c(cc4C3)C(=O)N(C3CCC(=O)NC3=O)C5=O)CC2)C1 (stereo partly specified)
// result 541 ng/g

###

- study.system: Protein cereblon/CREB-binding protein (Homo sapiens, UniProt Q92793+Q96SW2)
- Sequence (Q92793 whole entry): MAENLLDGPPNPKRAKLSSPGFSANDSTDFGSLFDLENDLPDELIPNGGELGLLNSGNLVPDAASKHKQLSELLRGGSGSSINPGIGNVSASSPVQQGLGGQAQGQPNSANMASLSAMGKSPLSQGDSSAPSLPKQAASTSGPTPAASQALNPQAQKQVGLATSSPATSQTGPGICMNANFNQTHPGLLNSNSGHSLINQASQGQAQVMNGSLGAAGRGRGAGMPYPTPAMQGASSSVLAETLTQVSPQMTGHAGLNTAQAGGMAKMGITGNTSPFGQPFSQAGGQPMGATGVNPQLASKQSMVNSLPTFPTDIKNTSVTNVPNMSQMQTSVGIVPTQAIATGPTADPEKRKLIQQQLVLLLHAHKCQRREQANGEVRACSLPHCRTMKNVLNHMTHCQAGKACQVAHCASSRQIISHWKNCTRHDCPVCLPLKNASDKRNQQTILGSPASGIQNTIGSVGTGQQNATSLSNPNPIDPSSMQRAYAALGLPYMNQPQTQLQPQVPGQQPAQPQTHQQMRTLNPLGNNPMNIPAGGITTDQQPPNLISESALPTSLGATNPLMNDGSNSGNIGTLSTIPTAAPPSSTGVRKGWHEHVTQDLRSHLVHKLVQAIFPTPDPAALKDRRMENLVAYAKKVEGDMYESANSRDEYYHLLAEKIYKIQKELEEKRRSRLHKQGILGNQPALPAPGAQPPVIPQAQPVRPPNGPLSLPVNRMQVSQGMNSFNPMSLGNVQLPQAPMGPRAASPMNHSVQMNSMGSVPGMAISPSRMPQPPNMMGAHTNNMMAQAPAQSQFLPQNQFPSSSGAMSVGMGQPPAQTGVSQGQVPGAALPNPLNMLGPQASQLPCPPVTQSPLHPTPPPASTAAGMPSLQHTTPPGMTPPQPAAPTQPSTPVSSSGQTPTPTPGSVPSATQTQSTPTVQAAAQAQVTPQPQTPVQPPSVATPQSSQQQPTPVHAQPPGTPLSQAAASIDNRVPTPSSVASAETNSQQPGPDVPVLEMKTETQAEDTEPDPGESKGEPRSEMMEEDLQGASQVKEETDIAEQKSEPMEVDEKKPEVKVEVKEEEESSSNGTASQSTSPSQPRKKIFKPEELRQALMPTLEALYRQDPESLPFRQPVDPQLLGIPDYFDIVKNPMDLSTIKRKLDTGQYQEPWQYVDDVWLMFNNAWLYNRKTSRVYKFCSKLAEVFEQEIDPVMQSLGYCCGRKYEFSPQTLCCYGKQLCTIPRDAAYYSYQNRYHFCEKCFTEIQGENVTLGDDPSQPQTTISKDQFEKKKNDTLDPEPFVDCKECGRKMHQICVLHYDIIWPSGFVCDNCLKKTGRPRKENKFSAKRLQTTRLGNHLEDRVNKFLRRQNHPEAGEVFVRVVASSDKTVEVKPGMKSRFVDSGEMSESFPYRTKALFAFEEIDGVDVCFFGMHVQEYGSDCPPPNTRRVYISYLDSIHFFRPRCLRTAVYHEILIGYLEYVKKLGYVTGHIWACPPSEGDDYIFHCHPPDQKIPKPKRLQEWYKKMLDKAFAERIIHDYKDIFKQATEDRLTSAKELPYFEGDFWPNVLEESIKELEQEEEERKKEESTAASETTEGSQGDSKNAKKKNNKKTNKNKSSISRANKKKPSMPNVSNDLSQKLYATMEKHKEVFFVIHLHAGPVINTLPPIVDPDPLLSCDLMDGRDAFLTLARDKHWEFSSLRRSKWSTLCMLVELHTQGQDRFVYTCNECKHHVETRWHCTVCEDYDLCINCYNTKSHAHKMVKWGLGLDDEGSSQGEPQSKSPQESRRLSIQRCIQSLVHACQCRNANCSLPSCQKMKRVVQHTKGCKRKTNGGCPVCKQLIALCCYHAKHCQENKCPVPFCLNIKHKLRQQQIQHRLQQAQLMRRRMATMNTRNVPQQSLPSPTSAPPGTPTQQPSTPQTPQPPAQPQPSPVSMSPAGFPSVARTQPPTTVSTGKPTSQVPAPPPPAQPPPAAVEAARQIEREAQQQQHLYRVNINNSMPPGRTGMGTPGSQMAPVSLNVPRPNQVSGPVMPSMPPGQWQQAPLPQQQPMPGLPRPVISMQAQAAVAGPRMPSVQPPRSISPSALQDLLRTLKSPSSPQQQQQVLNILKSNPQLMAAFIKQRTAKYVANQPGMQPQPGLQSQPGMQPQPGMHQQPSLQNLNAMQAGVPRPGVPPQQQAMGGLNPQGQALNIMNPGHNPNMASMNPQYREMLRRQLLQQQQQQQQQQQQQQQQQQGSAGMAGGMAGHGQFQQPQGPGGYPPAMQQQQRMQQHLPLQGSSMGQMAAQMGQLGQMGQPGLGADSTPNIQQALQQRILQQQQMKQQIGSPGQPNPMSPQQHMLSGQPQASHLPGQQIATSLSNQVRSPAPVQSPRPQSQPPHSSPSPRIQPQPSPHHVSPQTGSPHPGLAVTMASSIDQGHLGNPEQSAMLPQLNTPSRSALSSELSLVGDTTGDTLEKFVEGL
- Sequence (Q96SW2 whole entry): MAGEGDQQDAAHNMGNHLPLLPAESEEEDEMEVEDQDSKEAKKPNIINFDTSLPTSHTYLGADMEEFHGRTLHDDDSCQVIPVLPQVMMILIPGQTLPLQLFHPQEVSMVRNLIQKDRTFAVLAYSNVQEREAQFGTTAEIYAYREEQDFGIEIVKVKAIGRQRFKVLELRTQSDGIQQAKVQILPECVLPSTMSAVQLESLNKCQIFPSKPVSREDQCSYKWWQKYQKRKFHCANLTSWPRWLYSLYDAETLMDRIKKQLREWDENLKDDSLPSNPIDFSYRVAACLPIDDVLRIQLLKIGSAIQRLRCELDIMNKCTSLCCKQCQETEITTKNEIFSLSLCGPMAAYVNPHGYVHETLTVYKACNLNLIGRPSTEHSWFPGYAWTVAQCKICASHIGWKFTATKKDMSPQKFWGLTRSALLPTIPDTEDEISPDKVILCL
- procedure.summary: PROTAC activity at CBP/CRBN in human U2OS cells assessed as induction of CBP degradation incubated for 24 hrs by Nan-glo HiBiT lytic assay
- Assay type: cell-based
assay.readout: DC50 (nM)
Numbers only here, please. The scale is nM.

// query Request the reported DC50 associated with CC(=O)N1CCc2c(c(N3CCCc4cc(-c5ccc(F)cc5)c(C(F)F)cc43)nn2C2CCN(C(=O)CN3Cc4cc5c(cc4C3)C(=O)N(C3CCC(=O)NC3=O)C5=O)CC2)C1 (centres undefined)
// result 36

// query Can you share its DC50? I mean this compound: CC(=O)N1CCc2c(c(N3CCCc4cc(-c5cnn(C)c5)c(C(F)F)cc43)nn2C2CCN(C(=O)CCCN3Cc4cc5c(cc4C3)C(=O)N(C3CCC(=O)NC3=O)C5=O)CC2)C1 (centres undefined)
// result 368

###

- procedure.summary: Drug distribution in Sprague-Dawley rat kidney at 10 mg/kg, po measured at 1 hr by LC-MS/MS analysis
- Type: ADME, organism-based
- conditions: read-out: Ct
assay.readout: concentration at 1 h (ng/g)
State the answer as a number, implicitly in ng/g.

// query Return reported concentration at 1 h; argument: CC(=O)N1CCc2c(c(N3CCCc4cc(-c5cnn(C)c5)c(C(F)F)cc43)nn2[C@H]2CC[C@H](CN3Cc4cc5c(cc4C3)C(=O)N(C3CCC(=O)NC3=O)C5=O)CC2)C1 (stereo partly specified)
// result 1170

###

- procedure.summary: AUC (0 to t) in Sprague-Dawley rat at 1 mg/kg, iv measured upto 24 hrs by LC-MS/MS analysis
- Type: ADME, organism-based
- conditions: in vivo
Answer each item with its documented AUC(0-t) at 24 h.

// query Form field: reported AUC(0-t) at 24 h of CC(=O)N1CCc2c(c(N3CCCc4cc(-c5cnn(C)c5)c(C(F)F)cc43)nn2C2CCN(C(=O)CN3Cc4cc5c(cc4C3)C(=O)N(C3CCC(=O)NC3=O)C5=O)CC2)C1 (configuration not stated)
// result 166 ng·h/mL

// query Field request: AUC(0-t) at 24 h | item: CC(=O)N1CCc2c(c(N3CCCc4ccc(C(F)F)cc43)nn2C2CCN(C(=O)CN3Cc4cc5c(cc4C3)C(=O)N(C3CCC(=O)NC3=O)C5=O)CC2)C1 (configuration not stated)
// result 88.7 ng·h/mL

Reference for the values: ChEMBL document CHEMBL5543112
